- tested on: UniProt P28335
- Sequence (P28335 33-458): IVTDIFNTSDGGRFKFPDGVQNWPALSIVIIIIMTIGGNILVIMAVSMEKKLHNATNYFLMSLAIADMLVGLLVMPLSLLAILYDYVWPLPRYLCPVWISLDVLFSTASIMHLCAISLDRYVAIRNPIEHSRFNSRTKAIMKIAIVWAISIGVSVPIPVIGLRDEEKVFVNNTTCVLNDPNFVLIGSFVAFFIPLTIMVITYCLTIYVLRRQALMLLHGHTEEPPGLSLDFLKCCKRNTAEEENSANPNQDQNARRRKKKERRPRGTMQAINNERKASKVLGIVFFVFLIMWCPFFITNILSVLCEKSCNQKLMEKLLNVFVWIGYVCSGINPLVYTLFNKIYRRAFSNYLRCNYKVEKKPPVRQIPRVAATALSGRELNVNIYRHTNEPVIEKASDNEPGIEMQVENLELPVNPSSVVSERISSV
- measurement protocol: Human 5-HT2C functional high throughput screening assay in CHO-K1 cells (calcium flux)
- Format: cell-based
- Parameters: expressed in transfected cells; host or cells: CHO-K1 cells
- run parameters: 5-HT2C agonist activity; CHO-K1 cells; calcium flux; read-out: EC50
# maps each entry to its EC50
Output spec: scalar in nM, unitless text.

Record excerpt, results attached:
compound	assay endpoint	measure unit	numeric result
FC(F)(F)Oc1ccc2c(c1)[C@H]1CNC[C@@H]1CCO2 (relative stereo)	EC50	nM	900
O=C1Cc2ccccc2[C@@H]2CN(Cc3ccccc3)C[C@H]2N1 (relative stereo)	EC50	nM	5000
CN1C[C@H]2CNC(=O)c3c(-c4ccccc4)cccc3[C@@H]2C1 (relative stereo)	EC50	nM	5000

Kindly state the measured EC50 obtained for COc1ccccc1S(=O)(=O)N1Cc2cccnc2[C@@H]2CNC[C@H]2C1 (relative stereo) with UniProt P28335.
300

Kindly state the measured EC50 obtained for N#Cc1cccc(-c2ccc3c(c2)C(=O)NC[C@@H]2CNC[C@@H]32)c1 (relative stereo) with UniProt P28335.
0.8

Kindly state the measured EC50 obtained for COc1ccc(F)cc1-c1ccc2c(c1)C(=O)NC[C@@H]1CN(C)C[C@@H]21 (relative stereo) with UniProt P28335.
50

Kindly state the measured EC50 obtained for COc1ccc(S(=O)(=O)N2Cc3cccnc3[C@@H]3CNC[C@H]3C2)cc1 (relative stereo) with UniProt P28335.
100
